Assay: log P determination by HPLC on reverse-phase column (EEC Directive 79/831 Annex V.A8)
Format: physicochemical
The threshold is inclusive: logP of exactly 3 counts as condition met; values below receive condition not met.

>>> group("Cc1cc(C#N)cc(C(N)=O)c1NC(=O)c1cc(Cn2cnc(C(F)(F)C(F)(F)F)n2)nn1-c1ncccc1Cl [I-1-339]")
"condition not met"
>>> group("Cc1cc(C#N)cc(C(=O)NC2CC2)c1NC(=O)c1cc(Cn2cc(C(F)(F)C(F)(F)F)c(C(F)(F)C(F)(F)F)n2)nn1-c1ncccc1Cl")
"condition met"
>>> group("CNC(=O)c1cc(C#N)cc(C)c1NC(=O)c1cc(Cn2cnc(C(F)(F)C(F)(F)F)n2)nn1-c1ncccc1Cl [I-1-352]")
"condition not met"
>>> group("Cc1cc(I)cc(C(=O)NCC(F)(F)F)c1NC(=O)c1cc(Cn2nc(C(F)(F)F)cc2C(F)(F)F)nn1-c1ncccc1Cl")
"condition met"
>>> group("Cc1cc(I)cc(C(=O)NC2CC2)c1NC(=O)c1cc(Cn2nc(C(F)F)c([N+](=O)[O-])c2C(F)F)nn1-c1ncccc1Cl")
"condition met"

----------
A collection of molecules and their measured logP
Test: log P determination by HPLC on reverse-phase column (EEC Directive 79/831 Annex V.A8)
Assay type: physicochemical
Experimental: The log P values stated in the foregoing tables and preparation examples are determined in accordance with EEC Directive 79/831 Annex V.A8 by means of HPLC (High Performance Liquid Chromatography) on a reverse-phase column (C 18). Temperature: 43° C. […] Calibration is with unbranched alkan-2-ones (having 3 to 16 carbon atoms) of known log P value (log P values determined from the retention times by linear interpolation between two successive alkanones).
value_type: logP

>>> assay_result("Cc1cc(C#N)cc(C(=O)NC2CC2CO)c1NC(=O)c1cc(Cn2cc(Cl)c(C(F)(F)C(F)(F)F)n2)nn1-c1ncccc1Cl (centres unmarked)")
3.11
>>> assay_result("Cc1cc(Cl)cc(C(=O)NC(C)C)c1NC(=O)c1cc(Cn2nnn(-c3ccc(Cl)cc3)c2=O)nn1-c1ncccc1Cl")
3.79
>>> assay_result("CNC(=O)c1cc(Cl)cc(Cl)c1NC(=O)c1cc(Cn2nc(C(F)F)c([N+](=O)[O-])c2C(F)F)nn1-c1ncccc1Cl")
2.99
>>> assay_result("CNC(=O)c1cc(Cl)cc(C)c1NC(=O)c1cc(Cn2nnc(-c3ccccc3)n2)nn1-c1ncccc1Cl")
3.09
>>> assay_result("Cc1cc(I)cc(C(N)=O)c1NC(=O)c1cc(Cn2nc(C(F)(F)F)nc2C(F)(F)F)nn1-c1ncccc1Cl")
3.38
>>> assay_result("Cc1cc(Cl)cc(C(=O)NC(C)CS(C)(=O)=O)c1NC(=O)c1cc(Cn2cc(Cl)c(C(F)(F)C(F)(F)F)n2)nn1-c1ncccc1Cl (centres unmarked)")
3.60
>>> assay_result("Cc1cc(I)cc(C(=O)NC(C)C2CC2)c1NC(=O)c1cc(Cn2nc(C(F)(F)F)cc2C(F)(F)F)nn1-c1ncccc1Cl (centres unmarked)")
4.55
>>> assay_result("Cc1cc(I)cc(C(=O)NC2CCC2)c1NC(=O)c1cc(Cn2nc(C(F)(F)F)nc2C(F)(F)F)nn1-c1ncccc1Cl")
4.18
>>> assay_result("CNC(=O)c1cc(F)cc(C)c1NC(=O)c1cc(Cn2ccc(C(F)(F)F)n2)nn1-c1ncccc1Cl")
2.58
>>> assay_result("O=C(NC1CC1)c1cc(Cl)cc(Cl)c1NC(=O)c1cc(Cn2ccc(C(F)(F)F)n2)nn1-c1ncccc1Cl")
2.54
>>> assay_result("Cc1cc(Cl)cc(C(=O)NC(C)C)c1NC(=O)c1cc(Cn2cnc(-c3ccc(Cl)cc3)n2)nn1-c1ncccc1Cl")
3.56
>>> assay_result("Cc1cc(I)cc(C(=O)NC(C)(C)C)c1NC(=O)c1cc(Cn2cc(Cl)c(C(F)(F)C(F)(F)F)n2)nn1-c1ncccc1Cl")
4.63
>>> assay_result("Cc1cc(F)cc(C(=O)NC2CC2CO)c1NC(=O)c1cc(Cn2cc(Cl)c(C(F)(F)C(F)(F)F)n2)nn1-c1ncccc1Cl (centres unmarked)")
3.14
>>> assay_result("CNC(=O)c1cc(Cl)cc(C)c1NC(=O)c1cc(Cn2cnc(-c3ccc(Cl)cc3)n2)nn1-c1ncccc1Cl")
3.07

----------
Test: log P determination by HPLC on reverse-phase column (EEC Directive 79/831 Annex V.A8)
Format: physicochemical
Conditions: HPLC, reverse-phase column (C 18), 43° C., acidic range pH 2.7
A collection of compounds and their measured logP
value_type: logP

>>> assay_result("Cc1cc(Br)cc(C(=O)NC2CC2)c1NC(=O)c1cc(Cn2nc(C(F)(F)F)cc2C(F)(F)F)nn1-c1ncc(C(F)(F)F)cc1Cl [I-2-24]")
4.63
>>> assay_result("Cc1cc(Cl)cc(C(=O)NC2CC2)c1NC(=O)c1cc(Cn2nc(C(F)(F)F)cc2C(F)(F)F)nn1-c1ncc(C(F)(F)F)cc1Cl [I-2-12]")
4.52
>>> assay_result("CC(C)NC(=O)c1cc2ccccc2c(Cl)c1NC(=O)c1cc(Cn2nc(C(F)(F)F)cc2C(F)(F)F)nn1-c1ncccc1Cl [I-3-1]")
4.08
>>> assay_result("Cc1cc(I)cc(C(=O)NC(C)C)c1NC(=O)c1cc(Cn2nc(C(F)(F)F)cc2C(F)(F)F)nn1-c1ncc(C(F)(F)F)cc1Cl [I-2-9]")
4.98
>>> assay_result("Cc1cc(F)cc(C(=O)NC2CC2)c1NC(=O)c1cc(Cn2nc(C(F)(F)F)cc2C(F)(F)F)nn1-c1ncc(C(F)(F)F)cc1Cl [I-2-19]")
4.11
>>> assay_result("CNC(=O)c1cc(Cl)cc(C)c1NC(=O)c1cc(Cn2nc(C(F)(F)F)cc2C(F)(F)F)nn1-c1ncc(C(F)(F)F)cc1Cl [I-2-22]")
3.53
>>> assay_result("Cc1cc(Cl)cc(C(=O)NCC#N)c1NC(=O)c1cc(Cn2nc(C(F)(F)F)cc2C(F)(F)F)nn1-c1ncc(C(F)(F)F)cc1Cl [I-2-18]")
4.23
>>> assay_result("O=C(NC1CC1)c1cc(Cl)cc(Cl)c1NC(=O)c1cc(Cn2nc(C(F)(F)F)cc2C(F)(F)F)nn1-c1ncc(C(F)(F)F)cc1Cl [I-2-13]")
4.46
>>> assay_result("Cc1cc(Br)cc(C(=O)NC(C)C)c1NC(=O)c1cc(Cn2nc(C(F)(F)F)cc2C(F)(F)F)nn1-c1ncc(C(F)(F)F)cc1Cl [I-2-21]")
4.75
>>> assay_result("Cc1cc(Cl)cc(C(=O)NC(C)C)c1NC(=O)c1cc(Cn2nc(C(F)(F)F)cc2C(F)(F)F)nn1C [I-2-1]")
4.08

----------
A collection of compounds and their measured logP
Experiment: log P determination by HPLC on reverse-phase column (EEC Directive 79/831 Annex V.A8)
Format: physicochemical
Details: HPLC on reverse-phase column
value_type: logP

>>> assay_result("Cc1cc(Br)cc(C(=O)NC2CC2)c1NC(=O)c1cc(Cn2ccc(C(F)(F)F)n2)nn1-c1ncccc1Cl")
3.18
>>> assay_result("CNC(=O)c1cc(Cl)cc(C)c1NC(=O)c1cc(Cn2nc(C(F)(F)F)nc2C(F)(F)F)nn1-c1c(Cl)cccc1Cl")
4.13
>>> assay_result("CSC[C@H](C)NC(=O)c1cccc(C)c1NC(=O)c1cc(Cn2nc(C(F)(F)F)nc2C(F)(F)F)nn1-c1ncccc1Cl")
3.62
>>> assay_result("Cc1cc(Cl)cc(C(=O)NCC#N)c1NC(=O)c1cc(Cn2nc(C(F)(F)F)nc2C(F)(F)F)nn1-c1ncccc1Cl [I-1-55]")
3.40

----------
A collection of compounds and their measured logP
Assay: log P determination by HPLC on reverse-phase column (EEC Directive 79/831 Annex V.A8)
Format: physicochemical
Settings: HPLC, reverse-phase column (C 18), 43° C., acidic range pH 2.7
value_type: logP

>>> assay_result("Cc1cc(Cl)cc(C(=O)NC(C)C2CC2)c1NC(=O)c1cc(Cn2nc(C(F)(F)F)cc2C(F)(F)F)nn1-c1ncc(C(F)(F)F)cc1Cl (stereo not shown)")
4.04
>>> assay_result("CC(C)NC(=O)c1cc(Cl)cc(Cl)c1NC(=O)c1cc(Cn2nc(C(F)(F)F)nc2C(F)(F)F)nn1C(C)C")
3.85
>>> assay_result("Cc1cc(Cl)cc(C(=O)NC(C)(C)C)c1NC(=O)c1cc(Cn2nc(C(F)(F)F)cc2C(F)(F)F)nn1-c1ncc(C(F)(F)F)cc1Cl")
5.12
>>> assay_result("CNC(=O)c1cc(Cl)cc(Cl)c1NC(=O)c1cc(Cn2nc(C(F)(F)F)nc2C(F)(F)F)nn1C1CCOC1 (stereo not shown)")
2.99
>>> assay_result("Cc1cc(Cl)cc(C(=O)NC(C2CC2)C2CC2)c1NC(=O)c1cc(Cn2nc(C(F)(F)F)cc2C(F)(F)F)nn1-c1ncc(C(F)(F)F)cc1Cl")
5.27
>>> assay_result("Cc1cc(F)cc(C(=O)NC(C)C)c1NC(=O)c1cc(Cn2nc(C(F)(F)F)cc2C(F)(F)F)nn1-c1ncc(C(F)(F)F)cc1Cl")
4.47
>>> assay_result("Cc1cc(Cl)cc(C(N)=O)c1NC(=O)c1cc(Cn2nc(C(F)(F)F)cc2C(F)(F)F)nn1-c1ncc(C(F)(F)F)cc1Cl")
4.09
>>> assay_result("CNC(=O)c1cc(Cl)cc(Cl)c1NC(=O)c1cc(Cn2nc(C(F)(F)F)nc2C(F)(F)F)nn1C(C)C")
3.31
>>> assay_result("CNC(=O)c1cc(Cl)cc(Cl)c1NC(=O)c1cc(Cn2nc(C(F)(F)F)cc2C(F)(F)F)nn1-c1ncc(C(F)(F)F)cc1Cl")
3.54
>>> assay_result("Cc1cc(Cl)cc(C(=O)NC(C)C)c1NC(=O)c1cc(Cn2nc(C(F)(F)F)cc2C(F)(F)F)nn1-c1ncc(C(F)(F)F)cc1Cl")
4.78
>>> assay_result("CNC(=O)c1cc(Cl)cc(Cl)c1NC(=O)c1cc(Cn2nc(C(F)(F)F)nc2C(F)(F)F)nn1C1CCCO1 (stereo not shown)")
2.83
>>> assay_result("CC(C)NC(=O)c1cc(Cl)cc(Cl)c1NC(=O)c1cc(Cn2nc(C(F)(F)F)cc2C(F)(F)F)nn1-c1ncc(C(F)(F)F)cc1Cl")
4.68
>>> assay_result("Cc1cc(I)cc(C(=O)NC2CC2)c1NC(=O)c1cc(Cn2nc(C(F)(F)F)cc2C(F)(F)F)nn1-c1ncc(C(F)(F)F)cc1Cl")
4.73
